Target: CD28 (Homo sapiens, UniProt P10747)
Test: Flow binding to Jurkat/IL2 reporter cells (CD28)
Parameters: host or cells: Jurkat cells expressing an IL-2-luciferase reporter
Conditions: Table E20; Jurkats (CD28); 33.3 nM
Method: Binding of selected immunomodulatory fusion proteins to cognate binding partners was assessed. […] Cells were sorted in a Bio-Rad S3 Cell Sorter (Bio-Rad Corp., USA) to >98% purity. […] For staining and analysis by flow cytometry, 100,000 cells of appropriate transfected cells were plated in 96-well round bottom plates. […] Cells were then washed twice with 150 μL/well stain buffer, fixed in 2% formaldehyde/PBS, and analyzed on Intellicyt flow cytometer (Intellicyt Corp., USA). […]
observed property: CD28 MFI at 33.3 nM
Answers are plain numbers.

Input line: Which value of CD28 MFI at 33.3 nM has been reported for H18Y/A26E/A71G/D90G (protein) VIHVTKEVKEVATLSCGYNVSVEELEQTRIYWQKEKKMVLTMMSGDMNIWPEYKNRTIFDITNNLSIVILGLRPSDEGTYECVVLKYEKGAFKREHLAEVTLSVKAD in the records?
Output line: 2001

Input line: Which value of CD28 MFI at 33.3 nM has been reported for H18Y/A26E/M47L/A71G (protein) VIHVTKEVKEVATLSCGYNVSVEELEQTRIYWQKEKKMVLTMMSGDLNIWPEYKNRTIFDITNNLSIVILGLRPSDEGTYECVVLKYEKDAFKREHLAEVTLSVKAD in the records?
Output line: 611

Input line: Which value of CD28 MFI at 33.3 nM has been reported for H18Y/A26E/E35D/V68M (protein) VIHVTKEVKEVATLSCGYNVSVEELEQTRIYWQKDKKMVLTMMSGDMNIWPEYKNRTIFDITNNLSIMILALRPSDEGTYECVVLKYEKDAFKREHLAEVTLSVKAD in the records?
Output line: 372

Look at each molecule and report its CD28 MFI at 33.3 nM.
1. E35D/M47L/A71G/D90G (protein) VIHVTKEVKEVATLSCGHNVSVEELAQTRIYWQKDKKMVLTMMSGDLNIWPEYKNRTIFDITNNLSIVILGLRPSDEGTYECVVLKYEKGAFKREHLAEVTLSVKAD
2. H18Y/A26E/E35D/M47L (protein) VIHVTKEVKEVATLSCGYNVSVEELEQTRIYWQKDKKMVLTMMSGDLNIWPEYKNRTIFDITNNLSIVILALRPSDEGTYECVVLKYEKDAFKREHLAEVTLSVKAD
3. E35D/V68M/A71G/D90G (protein) VIHVTKEVKEVATLSCGHNVSVEELAQTRIYWQKDKKMVLTMMSGDMNIWPEYKNRTIFDITNNLSIMILGLRPSDEGTYECVVLKYEKGAFKREHLAEVTLSVKAD
4. E35D/M47L/V68M/D90G (protein) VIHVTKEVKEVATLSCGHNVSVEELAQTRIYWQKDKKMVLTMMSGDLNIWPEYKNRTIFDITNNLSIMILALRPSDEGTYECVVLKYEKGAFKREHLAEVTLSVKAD
5. A26E/E35D/M47L/A71G (protein) VIHVTKEVKEVATLSCGHNVSVEELEQTRIYWQKDKKMVLTMMSGDLNIWPEYKNRTIFDITNNLSIVILGLRPSDEGTYECVVLKYEKDAFKREHLAEVTLSVKAD

Output line:
1331
324
2843
3414
236
